tested.on: 5HT2C receptors (Homo sapiens, UniProt P28335)
Sequence (P28335 33-458): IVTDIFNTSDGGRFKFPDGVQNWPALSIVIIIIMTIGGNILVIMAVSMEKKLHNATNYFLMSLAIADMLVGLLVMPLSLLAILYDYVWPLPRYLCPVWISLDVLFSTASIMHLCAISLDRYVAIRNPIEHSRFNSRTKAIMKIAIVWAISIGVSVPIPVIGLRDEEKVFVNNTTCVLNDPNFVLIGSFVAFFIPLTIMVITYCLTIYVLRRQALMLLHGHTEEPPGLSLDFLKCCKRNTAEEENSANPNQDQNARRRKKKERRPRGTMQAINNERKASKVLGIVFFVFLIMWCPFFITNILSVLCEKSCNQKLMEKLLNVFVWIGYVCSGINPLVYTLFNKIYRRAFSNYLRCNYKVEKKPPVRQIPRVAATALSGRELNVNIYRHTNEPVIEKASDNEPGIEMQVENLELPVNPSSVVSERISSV
protocol.text: Human 5-HT2C functional high throughput screening assay in CHO-K1 cells (calcium flux)
Assay type: cell-based
Set-up: expressed in transfected cells; host or cells: CHO-K1 cells
particulars: EC50, 5-HT2C agonist activity; CHO-K1 cells; calcium flux
recorded.endpoint: pEC50
Give bare numbers, as −log10 of the molar value.

Consider the reported pEC50 for these compounds:
compound	pEC50
Fc1ccc2c(c1)OCC[C@H]1CNC[C@H]21 (relative stereo)	7.40
O=S(=O)(c1ccc(Br)s1)N1Cc2cccnc2[C@@H]2CNC[C@H]2C1 (relative stereo)	8.00
Cc1ccc2c(c1)OCC[C@H]1CNC[C@H]21 (relative stereo)	8.22
Nc1ccc2c(c1)C(=O)NC[C@@H]1CNC[C@@H]21 (relative stereo)	7.00
O=S(=O)(c1ccccc1Cl)N1Cc2cccnc2[C@@H]2CNC[C@H]2C1 (relative stereo)	7.00
COc1ncc(-c2ccc3c(c2)C(=O)NC[C@@H]2CNC[C@@H]32)cn1 (relative stereo)	7.15

Please state, for each entry, its recorded pEC50.
1. O=S(=O)(c1ccccc1F)N1Cc2cccnc2[C@@H]2CNC[C@H]2C1 (relative stereo)
2. O=C1NC[C@@H]2CNC[C@H]2c2ncccc21 (relative stereo)
3. CN1C[C@@H]2CNC(=O)c3cc(OCc4ccccc4)ccc3[C@H]2C1
4. Fc1ccc2c(c1)[C@@H]1CNC[C@@H]1CCO2 (relative stereo)
5. CN1C[C@@H]2CCOc3ccc(Cl)cc3[C@H]2C1
6. CC(C)CNc1ccc2c(c1)C(=O)NC[C@@H]1CN(C)C[C@@H]21 (relative stereo)
7. Cc1cccc(S(=O)(=O)N2Cc3cccnc3[C@@H]3CNC[C@H]3C2)c1 (relative stereo)

A:
[7.00, 7.10, 8.52, 6.40, 8.00, 7.00, 7.15]

###

tested.on: 5HT2C receptors (Homo sapiens, UniProt P28335)
protocol.text: Human 5-HT2C functional high throughput screening assay in CHO-K1 cells (calcium flux)
Assay type: cell-based
Design: expressed in transfected cells; host or cells: CHO-K1 cells
particulars: CHO-K1; 5-HT2C; maximum functional response as percentage relative to the effect of serotonin
Hi there, I'd appreciate the recorded Emax for every entry that follows.

Answered cases to consult:
molecule	Emax
CN1CC[C@@H]2CNC[C@H]2c2ccccc21 (relative stereo) [Example 327]	95%
Cc1ccccc1S(=O)(=O)N1Cc2cccnc2[C@@H]2CNC[C@H]2C1 (relative stereo) [Example 341]	90%
Brc1cccc2c1OCC[C@H]1CNC[C@H]21 (relative stereo) [Example 383]	105%
COc1ccc2c(c1)C(=O)NC[C@@H]1CNC[C@H]21 (relative stereo) [Example 135]	> 120%

State the recorded Emax for every item in the following list.
1. O=S(=O)(c1ccccc1Cl)N1Cc2cccnc2[C@@H]2CNC[C@H]2C1 (relative stereo) [Example 362]
2. O=C1NC[C@H]2CN(Cc3ccccc3)C[C@@H]2c2ccc(F)cc21 [Example 61]
3. CC(C)COc1ccc2c(c1)C(=O)NC[C@@H]1CN(C)C[C@@H]21 (relative stereo) [Example 172]
4. CN1C[C@@H]2CNC(=O)c3cc(OCc4ccccc4)ccc3[C@H]2C1 [Example 274]

A:
1: 80%; 2: > 120%; 3: > 120%; 4: > 120%
